# measurement-target: human NTCP (Homo sapiens, UniProt Q14973)
# Sequence (Q14973 1-349): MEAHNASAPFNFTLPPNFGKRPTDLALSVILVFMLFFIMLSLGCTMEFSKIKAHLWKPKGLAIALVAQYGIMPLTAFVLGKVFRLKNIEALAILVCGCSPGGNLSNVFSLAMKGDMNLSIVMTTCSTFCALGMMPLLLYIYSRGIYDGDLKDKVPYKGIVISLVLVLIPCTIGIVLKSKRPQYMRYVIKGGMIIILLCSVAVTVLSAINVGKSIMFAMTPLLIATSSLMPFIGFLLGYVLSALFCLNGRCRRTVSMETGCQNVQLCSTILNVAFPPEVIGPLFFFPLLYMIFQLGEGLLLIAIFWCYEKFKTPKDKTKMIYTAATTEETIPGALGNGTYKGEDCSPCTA
# assay-method-text: Screening taurocholate uptake assay (96-well, [14C]taurocholate, 10 µM drug)
# condition: screening taurocholate uptake, 10 µM drug
observable: B-score functional assay
Numbers only.

A selection of reference data follows.
molecule | experimental-value
CC1=C(/C=C/C(C)=C/C=C/C(C)=C\C(=O)O)C(C)(C)CCC1 [Isotretinoin] | -0.503
CN[C@@H]1[C@H](O)[C@H](NC)[C@H]2O[C@@]3(O)C(=O)C[C@@H](C)O[C@H]3O[C@@H]2[C@H]1O.Cl.Cl [Spectinomycin dihydrochloride] | -0.865
Cc1cccc(C)c1NC(=O)CN1CCN(CCCC(c2ccc(F)cc2)c2ccc(F)cc2)CC1 [Lidoflazine] | -0.817

Here's the next entry for you.
The measured B-score functional assay associated with CCC(COC(=O)c1cc(OC)c(OC)c(OC)c1)(c1ccccc1)N(C)C (stereo not shown) [Trimebutine] reads -0.018

====

# measurement-target: human NTCP (Homo sapiens, UniProt Q14973)
# assay-method-text: Screening taurocholate uptake assay (96-well, [14C]taurocholate, 10 µM drug)
# condition: combined ranking of functional and binding screening assays
Counter-ions that a name gives are not always drawn.
observable: Ranking score
Numbers only.

Look over these answered cases.
molecule | measurement-target | Ranking score
C=CC1=C(C(=O)O)N2C(=O)[C@@H](NC(=O)/C(=N\O)c3csc(N)n3)[C@H]2SC1 | human NTCP (Homo sapiens, UniProt Q14973) | 598.124
C[C@]12C=CC(=O)C=C1CC[C@@H]1[C@@H]2[C@@H](O)C[C@@]2(C)[C@H]1CC[C@]2(O)C(=O)CO | human NTCP (Homo sapiens, UniProt Q14973) | 486.999
NNc1nncc2ccccc12 [Hydralazine hydrochloride] | human NTCP (Homo sapiens, UniProt Q14973) | 587.239
O.O=C1C(O)=C(O)C(=O)C(O)=C1O [Tetrahydroxy-1,4-quinone hydrate] | human NTCP (Homo sapiens, UniProt Q14973) | 603.838
CCCc1nc(C)c2c(=O)[nH]c(-c3cc(S(=O)(=O)N4CCN(CC)CC4)ccc3OCC)nn12 | human NTCP (Homo sapiens, UniProt Q14973) | 546.31

// for each molecule in input: emit Ranking score
1. C[C@H](Cc1cc2c(c(C(N)=O)c1)N(CCCO)CC2)NCCOc1ccccc1OCC(F)(F)F
2. COCCCC/C(=N\OCCN)c1ccc(C(F)(F)F)cc1 [Fluvoxamine maleate]
3. Nc1nc(NC2CC2)c2ncn([C@H]3C=C[C@@H](CO)C3)c2n1 [Abacavir Sulfate]
4. C[C@]12CCC(=O)C=C1CC[C@@H]1[C@@H]2[C@@H](O)C[C@@]2(C)[C@H]1CC[C@]2(O)C(=O)CO [Hydrocortisone base]
5. Cn1c(=O)c2[nH]cnc2n(C)c1=O

Result:
[510.413, 486.369, 1184.97, 557.864, 601.379]

The reported measurements were obtained from paper PMC5681660.
